Tested on: HIV-1(IIIB)
Test: Inhibition of HIV-1 induced syncytium formation in CEM cells, wild type
Assay type: cell-based
Conditions: Human immunodeficiency virus 1, IIIB, CCRF-CEM, 96 h, Table 2B, WT = HIV-1(IIIB), day 4, averages of 2 to 3 independent experiments, read-out: Antiviral Activity of Comparative Compounds EC50, WT
Assay Metric: EC50 (µg/mL)
Give bare numbers, in µg/mL.

Test Smiles	EC50 / µg/mL
Cc1sccc1C(=S)Nc1ccc(Cl)c(OCCC(C)C)c1	0.007
CON=Cc1cc(NC(=S)c2ccoc2C)ccc1Cl	0.03

// fetch HIV-1(IIIB) EC50 for O=C(OC1CCCCC1)c1cc(NC(=S)c2ccccc2F)ccc1Cl
0.04
